Values from PubChem BioAssay (NCI)

Tested on: SF-539 CNS
Test: NCI tumour cell line growth inhibition, 48 h
Below is a list of entries, each paired with its recorded TGI value.

The examples below pair each entry with its known result.
| compound | TGI |
| --- | --- |
| CC1(C)OC(=O)C(=C2CC(c3ccccc3)c3ccccc32)C(=O)O1 (configuration not stated) | > 100 µM |
| CC([O-])C(=O)[O-].NCC1CCC1CN.[Pt+4] (configuration not stated) | > 10 µM |
| CN1CCCN(C(c2ccccc2)c2ccc(Br)cc2)CC1 (configuration not stated) | 11.1 µM |
| COC(=O)c1scc(N)c1-n1ccc(=O)[nH]c1=O | > 100 µM |
| CN1CCN(c2ccc(-n3cc(C(=O)O)c(=O)c4cc(F)c(N5CCN(C)CC5)cc43)nc2)CC1 | > 100 µM |
| COC1(C)C=NCC(C)(C)NC(=O)C(C)(OC)C=NCC(C)(C)NC1=O (configuration not stated) | > 10 µM |
| Cc1ccc(S(=O)(=O)n2cc(-c3nnnn3-c3ccc(Cl)cc3)c(=O)c3ccccc32)cc1 | > 100 µM |
| O=C(CCl)Nc1ccc2c(c1)C(=O)c1ccc(NC(=O)CCl)cc1C2=O | 0.866 µM |

Return TGI for the following compound: "CC(=O)c1ccc(NCN2C(=O)c3ccccc3C2=O)cc1"
> 100 µM

Please give the documented TGI of "Cn1c(=O)c2nc(N3CCCCC3)cnc2n(C)c1=O"
> 100 µM

Recall and state the measured TGI for CC1=CC2C(C(C)C)CC1C1C(=O)OC(=O)C21 (configuration not stated) .
> 100 µM

Name the recorded TGI of the item CCOP(C)(=O)C(Nc1ccc(F)cc1)c1ccc(F)cc1 (configuration not stated) in your answer.
> 100 µM

Name the recorded TGI of the item "CC(C)[C@@H]1CC[C@@H]2[C@@H]1[C@H](OC(=O)/C=C/c1ccccc1)[C@]1(C(C)C)C[C@@H](OC(=O)CO)[C@@]2(C)O1" in your answer.
10.2 µM
